system: CYP3A4/5; test: CYP3A4/5 inhibition in pooled human liver microsomes; format: in vitro ADME; settings: both sexes, human, microsomes, in vitro; abstract summary; read-out: IC50, direct or time-dependent CYP3A4/5 inhibition
Readout Kind: IC50

Prompt line: Indicate its recorded IC50; the compound in question is `CN1CCC(COc2cnc(-c3cccc(Cn4nc(-c5cccc(C#N)c5)ccc4=O)c3)nc2)CC1`
Response line: > 15 µM

###

tested on: CYP3A4/5; test: CYP3A4/5 inhibition in pooled human liver microsomes; format: in vitro ADME; details: both sexes, human, microsomes, Testosterone 1’-hydroxylation; zero-minute preincubation; 49.5 µM; read-out: Direct inhibition, maximum inhibition at 49.5 µM
Readout Kind: inhibition at 49.5 µM (%)
The reply should be a number in %, with the unit left off.

Prompt line: Consider the compound `CN1CCC(COc2cnc(-c3cccc(Cn4nc(-c5cccc(C#N)c5)ccc4=O)c3)nc2)CC1` and give its recorded inhibition at 49.5 µM.
Response line: 62
